System: Raji
Assay summary: Tumoricidal activity against human lymphoma cell line Raji
Format: cell-based
Readout name: pIC50
pIC50 here is simply -log10 of the concentration when that concentration is written in mol/L.

Query pIC50 on Raji for Cc1cccc(-c2nn3c(c2-c2ccnc4ccc(C(N)=O)cc24)CCC3)n1
6.11

Source: paper PMC7559877
